System name: wildtype feline IL-31 (Feline_IL31_wildtype) (feline)
Sequence (chain, as listed by the source limits assumed, form in doubt): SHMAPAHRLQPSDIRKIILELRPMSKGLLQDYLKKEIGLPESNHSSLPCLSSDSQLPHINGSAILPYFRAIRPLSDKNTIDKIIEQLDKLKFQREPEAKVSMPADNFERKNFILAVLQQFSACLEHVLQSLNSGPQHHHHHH
Test summary: SPR (Biacore), immobilised IL-31, 1:1 fit
In this section we review reported kon values for a set of binders.
Supply the numeric figure in M⁻¹ s⁻¹, leaving out any unit text.

Here are 3 binders together with their reported answers.
- Binder: "Feline 15H05_VH1 mouse VL (antibody, V domains shown) VH: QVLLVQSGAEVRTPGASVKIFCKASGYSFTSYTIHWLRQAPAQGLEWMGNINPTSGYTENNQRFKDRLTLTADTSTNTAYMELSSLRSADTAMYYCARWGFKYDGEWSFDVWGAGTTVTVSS VL: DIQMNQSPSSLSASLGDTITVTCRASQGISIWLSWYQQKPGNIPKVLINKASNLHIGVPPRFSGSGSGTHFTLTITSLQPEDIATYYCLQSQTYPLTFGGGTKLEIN"
  kon / M⁻¹ s⁻¹: 131000
- Binder: "Feline 15H05 1.1 L46V (antibody, V domains shown) VH: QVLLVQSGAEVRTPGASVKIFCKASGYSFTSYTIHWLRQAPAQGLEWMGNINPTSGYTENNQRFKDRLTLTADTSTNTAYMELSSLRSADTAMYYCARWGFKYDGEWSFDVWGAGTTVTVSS VL: EIQMTQSPSSLSASPGDRVTITCRASQGISIWLSWYQQKPGKVPKVLIYKASNLHIGVPSRFSGSGSGTDFTLTISSLEPEDAATYYCLQSQTYPLTFGGGTKLEIK"
  kon / M⁻¹ s⁻¹: 35500
- Binder: "Feline 15H05 1.1 K42N_V43I (antibody, V domains shown) VH: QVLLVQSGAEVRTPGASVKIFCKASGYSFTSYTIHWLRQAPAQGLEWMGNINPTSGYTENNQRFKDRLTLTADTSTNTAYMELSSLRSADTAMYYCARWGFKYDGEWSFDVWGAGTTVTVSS VL: EIQMTQSPSSLSASPGDRVTITCRASQGISIWLSWYQQKPGNIPKLLIYKASNLHIGVPSRFSGSGSGTDFTLTISSLEPEDAATYYCLQSQTYPLTFGGGTKLEIK"
  kon / M⁻¹ s⁻¹: 234000

Please look at the following binder next.
(Q) Endpoint output: kon of Feline 15H05 1.1 FW1 (antibody, V domains shown) VH: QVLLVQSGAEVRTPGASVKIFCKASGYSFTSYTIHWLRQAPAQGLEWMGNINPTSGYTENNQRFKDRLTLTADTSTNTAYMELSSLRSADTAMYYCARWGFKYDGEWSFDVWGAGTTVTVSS VL: DIQMNQSPSSLSASLGDTITVTCRASQGISIWLSWYQQKPGKVPKLLIYKASNLHIGVPSRFSGSGSGTDFTLTISSLEPEDAATYYCLQSQTYPLTFGGGTKLEIK . Value?
(A) 5060

FYI, the data here is from patent US20190282704A1.
